In this section we review reported IC50 values for a set of compounds.
MEASURED_ON: STEP (Homo sapiens, UniProt P54829)
Sequence (P54829 whole entry, species assumed): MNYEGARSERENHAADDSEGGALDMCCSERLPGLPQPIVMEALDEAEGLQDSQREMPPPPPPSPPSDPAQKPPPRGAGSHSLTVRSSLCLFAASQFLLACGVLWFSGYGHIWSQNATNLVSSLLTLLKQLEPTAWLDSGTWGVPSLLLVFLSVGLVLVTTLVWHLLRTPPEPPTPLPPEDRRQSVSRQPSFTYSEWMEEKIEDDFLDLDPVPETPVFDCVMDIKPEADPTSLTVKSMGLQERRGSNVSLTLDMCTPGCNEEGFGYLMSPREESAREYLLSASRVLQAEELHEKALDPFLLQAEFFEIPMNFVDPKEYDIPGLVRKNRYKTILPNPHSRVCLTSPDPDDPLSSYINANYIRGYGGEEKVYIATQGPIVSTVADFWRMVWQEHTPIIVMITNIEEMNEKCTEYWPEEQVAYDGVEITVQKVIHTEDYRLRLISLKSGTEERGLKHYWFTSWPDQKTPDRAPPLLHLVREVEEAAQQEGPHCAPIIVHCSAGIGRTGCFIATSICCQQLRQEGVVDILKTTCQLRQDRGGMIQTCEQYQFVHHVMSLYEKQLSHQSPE
TEST_DETAILS: PTP inhibition assay (pNPP)
Format: biochemical
CONDITION_SET: pNPP at Km, pH 7.0, 25° C.; read-out: IC50 STEP

Sample answers from the record:
[
  {
    "COMPOUND": "O=C(C(c1ccccc1)S(=O)(=O)O)N1CCCC2CCCCC21 (stereo not shown)",
    "REPORTED": "> 200 µM"
  },
  {
    "COMPOUND": "O=C(Nc1ccc(OCc2ccccc2)c(Cl)c1)C(c1ccccc1)S(=O)(=O)O (stereo not shown)",
    "REPORTED": "> 200 µM"
  },
  {
    "COMPOUND": "O=C(Nc1ccc(N2CCOCC2)cc1)C(c1ccccc1)S(=O)(=O)O (stereo not shown)",
    "REPORTED": "> 200 µM"
  }
]

Here is another compound to look at.
Recall the recorded IC50 for `O=C(CS(=O)(=O)O)Nc1nc2ccccc2s1` with STEP (Homo sapiens, UniProt P54829) and state it.
> 100 µM

---

MEASURED_ON: HePTP (Homo sapiens)
Sequence (P35236 whole entry): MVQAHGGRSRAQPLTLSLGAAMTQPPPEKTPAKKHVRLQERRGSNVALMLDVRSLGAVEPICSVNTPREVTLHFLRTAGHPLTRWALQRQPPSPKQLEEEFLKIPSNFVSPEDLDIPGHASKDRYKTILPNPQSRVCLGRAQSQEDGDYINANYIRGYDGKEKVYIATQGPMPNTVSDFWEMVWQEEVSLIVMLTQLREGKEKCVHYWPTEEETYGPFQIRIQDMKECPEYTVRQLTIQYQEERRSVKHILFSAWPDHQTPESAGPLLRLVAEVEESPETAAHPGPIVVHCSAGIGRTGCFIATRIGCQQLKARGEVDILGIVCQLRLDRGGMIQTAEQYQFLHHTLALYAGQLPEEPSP
TEST_DETAILS: PTP inhibition assay (pNPP)
Type: biochemical
CONDITION_SET: […]; HePTP
QUANTITY_KIND: pIC50
pIC50 here is simply -log10 of the concentration when that concentration is written in mol/L.

[
  {
    "COMPOUND": "O=C(Nc1ccc(N2CCOCC2)cc1)C(c1ccccc1Cl)S(=O)(=O)O (stereo not shown) [Compound L319-07-M68]",
    "pIC50": 4.96
  }
]

What measured pIC50 goes with O=C(Nc1ccc(OCc2ccccc2)c(Cl)c1)C(c1ccc2ccccc2c1)S(=O)(=O)O (stereo not shown) [Compound L319-14-M50] ?
4.60

What measured pIC50 goes with Cc1ccc(C(C(=O)Nc2ccc(N3CCOCC3)cc2)S(=O)(=O)O)cc1 (stereo not shown) [Compound L319-11-M68] ?
5.49

What measured pIC50 goes with O=C(N1CCC(c2ccc(Cl)c(Cl)c2)CC1)C(Br)(c1ccccc1)S(=O)(=O)O (stereo not shown) [Compound L319-Br1-N47] ?
4.59

What measured pIC50 goes with O=C(Nc1ccc(N2CCOCC2)cc1)C(c1cccc(F)c1)S(=O)(=O)O (stereo not shown) [Compound L319-13-M68] ?
5.37

What measured pIC50 goes with O=C(C(c1ccc(-c2ccccc2)cc1)S(=O)(=O)O)N1CCc2cc(Br)ccc21 (stereo not shown) [Compound L319-16-M93] ?
5.12

What measured pIC50 goes with O=C(NNc1ccccc1[N+](=O)[O-])C(c1ccc(-c2ccccc2)cc1)S(=O)(=O)O (stereo not shown) [Compound L319-16-N55] ?
4.37

What measured pIC50 goes with O=C(Nc1nc2cc(Cl)ccc2o1)C(c1ccc(-c2ccccc2)cc1)S(=O)(=O)O (stereo not shown) [Compound L319-16-M60] ?
4.89

What measured pIC50 goes with O=C(Nc1ccc(N2CCOCC2)cc1)C(c1ccccc1F)S(=O)(=O)O (stereo not shown) [Compound L319-06-M68] ?
4.66

What measured pIC50 goes with COc1ccc(CNC(=O)C(Br)(c2ccccc2)S(=O)(=O)O)c(OC)c1 (stereo not shown) [Compound L319-Br1-N76] ?
4.66

---

MEASURED_ON: Ssu72 (Homo sapiens, UniProt Q9NP77)
Sequence (Q9NP77 whole entry, species assumed): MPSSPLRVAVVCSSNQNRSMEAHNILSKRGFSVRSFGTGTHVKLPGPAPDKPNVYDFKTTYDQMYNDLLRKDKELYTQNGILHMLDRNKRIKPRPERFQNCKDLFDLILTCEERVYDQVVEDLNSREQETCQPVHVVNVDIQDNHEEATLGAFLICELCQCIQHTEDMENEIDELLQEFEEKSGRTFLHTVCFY
TEST_DETAILS: PTP inhibition assay (pNPP)
Type: biochemical
CONDITION_SET: pNPP at Km, pH 7.0, 25° C.; read-out: IC50 Ssu72
pIC50: −log10 of the molar value.
QUANTITY_KIND: pIC50

Sample answers from the record:
[
  {
    "COMPOUND": "O=C(Nc1cccc(OCc2ccccc2)c1)C(c1ccccc1)S(=O)(=O)O (stereo not drawn) [Compound L319M52]",
    "REPORTED": 4.01
  },
  {
    "COMPOUND": "O=C(Nc1cnc2ccccc2c1)C(c1ccccc1)S(=O)(=O)O (stereo not drawn) [Compound L319M88]",
    "REPORTED": "< 3.70"
  },
  {
    "COMPOUND": "O=C(Nc1ccc2nc(C(F)(F)F)[nH]c2c1)C(c1ccccc1)S(=O)(=O)O (stereo not drawn) [Compound L319M54]",
    "REPORTED": "< 3.70"
  },
  {
    "COMPOUND": "O=C(C(c1ccccc1)S(=O)(=O)O)N1CCC(Cc2ccccc2)CC1 (stereo not drawn) [Compound L319N46]",
    "REPORTED": "< 3.70"
  },
  {
    "COMPOUND": "O=C(C(c1ccccc1)S(=O)(=O)O)N1CCCC2CCCCC21 (stereo not drawn) [Compound L319N53]",
    "REPORTED": "< 3.70"
  },
  {
    "COMPOUND": "O=C(Nc1nc2ccccc2s1)C(c1ccccc1)S(=O)(=O)O (stereo not drawn) [Compound L319N15]",
    "REPORTED": 4.16
  }
]

Recall the recorded pIC50 for `O=C(CS(=O)(=O)O)Nc1cnc2ccccc2c1` with Ssu72 (Homo sapiens, UniProt Q9NP77) and state it.
< 4.00

Recall the recorded pIC50 for CCCCc1ccc(NC(=O)C(=O)Nc2ccccc2NC(=O)C(c2ccccc2)S(=O)(=O)O)cc1 (stereo not drawn) [Compound L319-21-M06] with Ssu72 (Homo sapiens, UniProt Q9NP77) and state it.
< 4.30

Recall the recorded pIC50 for O=C(Nc1ccc(N2CCOCC2)cc1)C(c1ccccc1)S(=O)(=O)O (stereo not drawn) [Compound L319M68] with Ssu72 (Homo sapiens, UniProt Q9NP77) and state it.
< 3.70

---

MEASURED_ON: STEP (Homo sapiens, UniProt P54829)
TEST_DETAILS: PTP inhibition assay (pNPP)
Format: biochemical
CONDITION_SET: IC50 STEP, pNPP at Km, pH 7.0, 25° C.
QUANTITY_KIND: IC50

Sample answers from the record:
[
  {
    "MOLECULE": "Cc1c(Br)cc(NC(=O)CS(=O)(=O)O)cc1Br",
    "REPORTED": "> 100 µM"
  },
  {
    "MOLECULE": "O=C(Nc1ccc(-n2ccnc2)cc1)C(c1ccccc1)S(=O)(=O)O (stereo not shown) [Compound L319M63]",
    "REPORTED": "> 100 µM"
  },
  {
    "MOLECULE": "Cc1c(Br)cc(NC(=O)C(c2ccccc2)S(=O)(=O)O)cc1Br (stereo not shown) [Compound L319M34]",
    "REPORTED": "> 200 µM"
  }
]

Here is another molecule to look at.
What measured IC50 goes with O=C(Nc1ccc(-c2ccccc2)cc1)C(c1ccccc1)S(=O)(=O)O (stereo not shown) [Compound L319N08] ?
> 100 µM

---

MEASURED_ON: LMWPTP (Homo sapiens)
Sequence (P24666 1-158): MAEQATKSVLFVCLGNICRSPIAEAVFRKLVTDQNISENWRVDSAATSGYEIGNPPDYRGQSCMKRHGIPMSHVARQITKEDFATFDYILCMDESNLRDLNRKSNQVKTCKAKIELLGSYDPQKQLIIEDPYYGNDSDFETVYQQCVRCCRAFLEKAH
TEST_DETAILS: PTP inhibition assay (pNPP)
Format: biochemical
CONDITION_SET: pNPP at Km, pH 7.0, 25° C.
In this section we review reported IC50 values for a set of compounds.
Write the number in µM without appending the unit.

[
  {
    "COMPOUND": "Cc1c(Br)cc(NC(=O)CS(=O)(=O)O)cc1Br",
    "IC50 [µM]": 4.2
  },
  {
    "COMPOUND": "O=C(CS(=O)(=O)O)Nc1ccc(N2CCOCC2)cc1",
    "IC50 [µM]": 63
  },
  {
    "COMPOUND": "O=C(Nc1ccc(-c2ccccc2)cc1)C(c1ccccc1)S(=O)(=O)O (stereo not shown)",
    "IC50 [µM]": 28.9
  }
]

What measured IC50 goes with O=C(Nc1ccc(N2CCOCC2)cc1)C(c1ccccc1)S(=O)(=O)O (stereo not shown) ?
20

What measured IC50 goes with O=C(Nc1nc2ccc(Cl)cc2s1)C(c1ccccc1)S(=O)(=O)O (stereo not shown) ?
5.6

What measured IC50 goes with O=C(Nc1cccc(OCc2ccccc2)c1)C(c1ccccc1)S(=O)(=O)O (stereo not shown) ?
72.3

---

Dear all, this message contains IC50 results, target or system PTPγ (Homo sapiens).

[
  {
    "COMPOUND": "O=C(Nc1cccc(OCc2ccccc2)c1)C(c1ccccc1)S(=O)(=O)O (stereo not shown)",
    "MEASURED_ON": "PTPγ (Homo sapiens)",
    "IC50": "> 200 µM"
  }
]

What measured IC50 goes with O=C(C(c1ccccc1)S(=O)(=O)O)N1CCC(c2ccc(Cl)c(Cl)c2)CC1 (stereo not shown) ?
180 µM

What measured IC50 goes with O=C(Nc1cnc2ccccc2c1)C(c1ccccc1)S(=O)(=O)O (stereo not shown) ?
> 200 µM

Taken from patent US10494332B2.
